- Test system: HeLa
- Experimental details: Primary qHTS to identify gynecologic anti-cancer compounds using libraries of approved drugs and bioactive compounds (AID 1345084); note: nearly all actives have a fitted effect of over 55% in size
- Condition summary: Gynecologic cancer cell panel viability, ATPlite luminescence, 48 h; series mostly up to 57.5 µM
Inconclusive results are not listed. Activity calls are given as the source filed them. Calls come from the whole dose curve; as a rule, active = well fitted cell-killing curve with a large enough effect; inconclusive = small, poorly fitted or top-dose-only effect, or effect the other way; inactive = flat fitted curve, though single readings scatter.
Outcomes: active, inactive

1) NS(=O)(=O)c1ccc(Nc2nc(OCC3CCCCC3)c3[nH]cnc3n2)cc1: inactive
2) OC[C@H]1O[C@@H](OCCc2ccc(O)cc2)[C@H](O)[C@@H](O)[C@H]1O: inactive
3) O=C(Nc1cccc2c(=O)cc(-c3nn[nH]n3)oc12)c1ccc(OCCCCc2ccccc2)cc1: inactive
4) CN(C)CCN(Cc1ccc(Cl)cc1)c1ccccn1: inactive
5) NC1(C(=O)N[C@@H](CCO)c2ccc(Cl)cc2)CCN(c2ncnc3[nH]ccc23)CC1: inactive
6) Cc1csc(-c2nnc(Nc3ccc(Oc4ncccc4-c4ccnc(N)n4)cc3)c3ccccc23)c1: inactive
7) CN(C)c1nc(Cc2ccc(NC(=O)c3ccc(C(F)(F)F)cc3)cc2)nc(N(C)C)c1CC(=O)O: inactive
8) O=S(=O)(O)c1ccc2cc(N=Nc3cc(S(=O)(=O)O)c4cccnc4c3O)ccc2c1: inactive
9) Cc1ccc2c(c1)C(=O)[C@]1(O)CCN(c3ccccc3)C1=N2: inactive
10) CNC(=O)c1ccc2c(C(=Nc3cccc(CN(C)C)c3)c3ccccc3)c(O)[nH]c2c1: inactive
11) O=C(c1ccc(C(=O)N2CCC(N3CCCC3)CC2)c(Nc2ccccc2)c1)N1CCC(N2CCCC2)CC1: inactive
12) Cc1cc(-c2ncc(CC(=O)Nc3ccc(-c4cnccn4)cn3)cc2C)ccn1: inactive
13) CN1c2ccccc2C(=O)N2CCc3c([nH]c4ccccc34)C21 (centres undefined): active
14) CCCCn1c(=O)n(Cc2ccccc2F)c(=O)c2[nH]c(Cc3ccc(NC(C)=O)cc3)nc21: inactive
15) O[C@@H](COc1cccc2ncccc12)CN1CCN(C2c3ccccc3[C@@H]3[C@H](c4ccccc42)C3(F)F)CC1 (some centres undefined): inactive
16) Nc1ccc(-c2ccc3ncc4ccc(=O)n(-c5cccc(C(F)(F)F)c5)c4c3c2)cn1: active
17) O=C(CC12CC3CC(CC(C3)C1)C2)Nc1cccc2nc(NCCNCCO)ccc12: inactive
18) COc1nc(C)cnc1NS(=O)(=O)c1cccnc1-c1ccc(-c2nnco2)cc1: inactive
19) CC1=C(C(=O)Nc2cc3cn[nH]c3cc2F)C(c2ccc(C(F)(F)F)cc2)CC(=O)N1 (centres undefined): inactive
20) CC(C)CNc1ccnc(NCc2csc(-c3ccccc3)n2)n1: inactive
21) CNC(=O)c1cc(Oc2ccc(NC(=O)Nc3ccc(Cl)c(C(F)(F)F)c3)c(F)c2)ccn1: inactive
22) CC(=O)Nc1cccc(-n2c(=O)n(C3CC3)c(=O)c3c(Nc4ccc(I)cc4F)n(C)c(=O)c(C)c32)c1: inactive
23) COc1nccc(-c2c(-c3ccc(F)cc3)ncn2C2CCNCC2)n1: inactive
24) C[C@@]1(c2cc(-c3cncnc3)c(F)cc2F)CCSC(N)=N1: inactive
25) Cc1ccc2c(c1)c1c(n2CCc2ccc(C)nc2)CCN(C)C1: inactive
26) Cc1c(C(=O)Nc2ccc(N3C[C@@H](C)O[C@@H](C)C3)nc2)cccc1-c1ccc(OC(F)(F)F)cc1: inactive
27) COc1ccc(Cn2ccc3ccc(C(=O)NO)cc32)cc1: inactive
28) Cc1nc2c([nH]1)CCN(C(=O)c1ccc(NC(=O)c3ccccc3-c3ccccc3)cc1)c1ccccc1-2: inactive
29) C[C@@]1(C(=O)Nc2ccc(F)nc2)CCCN1c1nc(Nc2cc(C3CC3)[nH]n2)c2cccn2n1: active
30) Cc1cc(C(C)Nc2ccccc2)c2nc(N3CCOCC3)cc(=O)n2c1 (centres undefined): inactive
31) NC(=O)c1ccc(N(C(N)=O)c2c(F)cccc2F)nc1-c1ccc(F)cc1F: inactive
32) c1ccc(-c2oc3ncnc(NC[C@@H]4CCCO4)c3c2-c2ccccc2)cc1: inactive
33) c1cc(OCCN2CCCCC2)cc(-c2n[nH]c3ccc(-c4ncn[nH]4)cc23)c1: inactive
34) CCCCC(F)(F)[C@@]1(O)CC[C@H]2[C@H](CC(=O)[C@@H]2CCCCCCC(=O)O)O1: inactive
35) Cc1nc(C(=O)NCC(=O)O)c(O)c2ccc(Oc3ccccc3)cc12: inactive
36) C[C@@H](NC(=O)c1ncnc(N)c1Cl)c1ncc(C(=O)Nc2cc(C(F)(F)F)c(Cl)cn2)s1: inactive
37) Cc1cnc(-c2cc(N3CCN(C(=O)CCS(C)(=O)=O)CC3)ncc2Cl)c(C)c1: inactive
38) NC(=O)c1noc([C@H](CCCC2CCCCC2)CC(=O)NO)n1: inactive
39) CN(C)CCOc1cc(-c2cn[nH]c2)ccc1NC(=O)C1COc2ccccc2O1 (centres undefined): inactive

Numbers sourced from PubChem BioAssay (NCATS).
